- Assay Method Text: Solubility of milvexian forms in organic solvent systems
- Assay type: physicochemical
- Run Parameters: 60/40 DCM/MeOH, 40 °C, organic solvent or mixture, 60/40 DCM/MeOH; temperature 40; read-out: Solubility in mg/mL solution
Measured Attribute: solubility

# solubility lookup, item "C[C@@H]1CCC[C@H](n2cnc(-c3cc(Cl)ccc3-n3cc(Cl)nn3)cc2=O)c2cc(ccn2)-c2c(cnn2C(F)F)NC1=O" > 200 mg/mL

* * *

- Assay Method Text: Solubility of milvexian forms in organic solvent systems
- Format: physicochemical
- Run Parameters: 95/5 DCM/MeOH, 20 °C, organic solvent or mixture, thermodynamic from solid, 95/5 DCM/MeOH; 20° C.; 24 hours; read-out: Solubility in mg/mL solution 24 hours
Measured Attribute: solubility at 24 hours (mg/mL)
One number for each entry, in mg/mL.

# solubility at 24 hours lookup, item C[C@@H]1CCC[C@H](n2cnc(-c3cc(Cl)ccc3-n3cc(Cl)nn3)cc2=O)c2cc(ccn2)-c2c(cnn2C(F)F)NC1=O [P1.Acetone solvate] 163
